Target: Methionine aminopeptidase (Escherichia coli K-12)
Experiment: Inhibitory activity against Ni(II) form of Escherichia coli MetAP
# reported IC50; entries follow
Give the number; µM is assumed, so skip it.

>>> reportedmeasurement("O=C(O)c1ccc(-c2ccccc2CF)o1")
68
>>> reportedmeasurement("O=Cc1ccccc1-c1ccc(C(=O)O)o1")
67.5
>>> reportedmeasurement("O=C(O)c1ccc(-c2ccccc2C(F)(F)F)o1")
165
>>> reportedmeasurement("O=C(O)c1ccc(Cc2ccc(Cl)cc2)o1")
89.8
>>> reportedmeasurement("C=CCCOc1ccccc1-c1ccc(C(=O)O)o1")
113
>>> reportedmeasurement("O=C(O)c1ccc(-c2cc([N+](=O)[O-])ccc2F)o1")
193
>>> reportedmeasurement("CONC(=O)c1ccc(-c2ccccc2Cl)o1")
51.2
>>> reportedmeasurement("O=C(NO)c1ccc(-c2ccccc2Cl)o1")
5.9
>>> reportedmeasurement("COC(=O)c1ccccc1-c1ccc(C(=O)O)o1")
194
>>> reportedmeasurement("O=C(O)c1ccc(-c2ccccc2CO)o1")
190

# lookup: IC50 of `OCc1ccc(-c2ccccc2Cl)o1`
55

Follow-up item: `O=C(O)Cc1ccc(Cc2ccccc2Cl)o1`
117

// query: `O=C(O)c1ccc(-c2cc([N+](=O)[O-])ccc2Cl)o1`
38.4

Param item: `O=C(O)c1ccc(Cc2ccccc2Cl)o1`
191

====

Target: Methionine aminopeptidase (Escherichia coli K-12, UniProt P0AE18)
Sequence (P0AE18 whole entry): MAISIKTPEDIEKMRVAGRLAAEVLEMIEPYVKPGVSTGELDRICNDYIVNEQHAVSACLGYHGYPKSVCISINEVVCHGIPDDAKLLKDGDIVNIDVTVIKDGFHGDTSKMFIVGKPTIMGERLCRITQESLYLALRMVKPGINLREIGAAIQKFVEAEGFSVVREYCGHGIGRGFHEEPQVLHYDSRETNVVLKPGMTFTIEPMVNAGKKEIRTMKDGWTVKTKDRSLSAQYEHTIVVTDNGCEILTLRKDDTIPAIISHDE
Experiment: Inhibitory activity against Co(II) form of Escherichia coli MetAP
observedProperty: pIC50
Note: pIC50 values are expressed as the negative base-10 logarithm of concentration in M.

Check out these entries, answers already filled in.
>>> reportedmeasurement("COCCOc1ccccc1-c1ccc(C(=O)O)o1")
3.99
>>> reportedmeasurement("O=C(NO)c1ccc(-c2ccccc2Cl)o1")
5.34
>>> reportedmeasurement("O=C(O)c1ccc(Cc2ccccc2)o1")
4.37
>>> reportedmeasurement("NC(=O)c1ccc(-c2ccccc2Cl)o1")
4.15
>>> reportedmeasurement("CCOc1ccccc1-c1ccc(C(=O)O)o1")
3.83

# query: pIC50 of entry `O=C(O)c1ccc(Cc2ccccc2Cl)o1`
3.80

Same for `O=C(O)Cc1ccc(Cc2ccccc2Cl)o1`
4.11

Also check `C=CCCOc1ccccc1-c1ccc(C(=O)O)o1`
4.03

What do we get for `O=C(O)c1ccc(-c2cccc(Cl)c2)o1` ?
3.70

Try the compound `COC(=O)c1ccccc1-c1ccc(C(=O)O)o1`
3.80

====

// values below are reported pIC50
Biological target: Methionine aminopeptidase (Escherichia coli K-12, UniProt P0AE18)
Experiment: Inhibitory activity against Mn(II) form of Escherichia coli MetAP
Just the number, please; pIC50 means minus log10 of the concentration in mol/L.

Please review the entries below; each comes with its answer.
>>> reportedmeasurement("Cc1cccc(-c2ccc(C(=O)O)o2)c1Cl")
5.77
>>> reportedmeasurement("O=C(O)c1ccc(-c2ccccc2C(=O)O)o1")
4.63
>>> reportedmeasurement("Nc1ccccc1-c1ccc(C(=O)O)o1")
4.90
>>> reportedmeasurement("O=C(O)c1ccc(Cc2ccc(Cl)cc2)o1")
4.35
>>> reportedmeasurement("O=C(O)c1ccc(-c2ccccc2CF)o1")
6.05
>>> reportedmeasurement("CCOc1ccccc1-c1ccc(C(=O)O)o1")
5.95
>>> reportedmeasurement("O=C(O)c1ccc(Cc2ccccc2Cl)o1")
5.91
>>> reportedmeasurement("COC(=O)c1ccccc1-c1ccc(C(=O)O)o1")
5.46
>>> reportedmeasurement("COc1ccc([N+](=O)[O-])cc1-c1ccc(C(=O)O)o1")
6.19
>>> reportedmeasurement("O=C(NO)c1ccc(-c2ccccc2Cl)o1")
6.33

Please turn your attention to the following entry.
Reported pIC50, compound `C#CCOc1ccccc1-c1ccc(C(=O)O)o1` : ____
5.33
